Target: T1, 4H496-bN
T1 chain: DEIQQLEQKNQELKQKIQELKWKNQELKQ
Assay: two-hybrid library CCNG1;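 further: natural log of median RNA to DNA barcode read ratio; higher means stronger binding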
measure: interaction score
Answers are plain numbers.

Recorded results for 5 binders are shown here.
DKIQQLKQENQELEQEIQELEWENQELEQ [4H2691-bN] | 1.01
DKNQELEKKIEELERENWELKKEIQELKR [4H3354-bH] | 0.755
DEIQQLEQKIQELKQENQELEWKIQELKQ [4H342-bN] | 1.56
DEIQQLEQKNQELKQKIQELKWKNQELKQ [4H496-bN] | -0.0824
DEIQQLEQENQELEQENQELEWEIQELEQ [4H145-bN] | -0.916

Count: 3. Required value per item: interaction score.
1. DKIQQLKQEIQELEQKNQELKWENQELEQ [4H2619-bN]
2. DKIQQLKQKNQELKQKNQELKWKIQELKQ [4H3070-bN]
3. DENQQLEQKIQELKQEIQELEWENQELEQ [4H1347-bN]

[-1.66, -1.31, -0.299]

Recorded interaction score (binder DKNQQLKQEIQELEQKIQELKWKNQELKQ [4H3632-bN] ): -0.174

Taken from paper PMC10397247.
